System: PF3D7_0420300 AP2 domain 1 (GST-tagged)
Assay: gcPBM binding intensity (ln(normalized median fluorescence intensity)); higher = stronger DNA binding
Over roughly 25,000 sequences, “ln(normalized median fluorescence intensity)” has its median near 9.3; the highest 2% begin near 10. For the sample, the highest values were picked, then their nearest neighbours and some sequences at random.
Test Readout: gcPBM binding intensity (ln)

ATTACATTAATAAGAGTGCATTATATAAGTTTTATG = 9.2
TGTAGATATTATATATGTACGCATATGAAATATATA [XGTACX_site1586] = 9.09
AATATAAATGTGATTACACACAACAGATTTAAATGG [CACACA_site4802] = 9.53

*Q* In one line, give reported gcPBM binding intensity (ln) of the entry TTCTTACATGAGTGTACACACTTTTTTTCAGAAAAT [CACACA_site4215] .
*A* 9.19

*Q* In one line, give reported gcPBM binding intensity (ln) of the entry TGAACACGCACAAATACACACAAAAAAAATAAATAA [CACACA_site6257] .
*A* 9.63

*Q* In one line, give reported gcPBM binding intensity (ln) of the entry CATATACACGAACACACACACACACGCACAAAAAAA [CACACA_site6376] .
*A* 10.2

*Q* In one line, give reported gcPBM binding intensity (ln) of the entry TTATTACGAACTCTGCAACATATATAAATAAATAAA [CACACA_negctrl_site44] .
*A* 8.86

*Q* In one line, give reported gcPBM binding intensity (ln) of the entry TTAATACATTAAATATGTACTTATATATCTCAACTA [XGTACX_site3997] .
*A* 9.11

*Q* In one line, give reported gcPBM binding intensity (ln) of the entry ATATATAAAATTATATGTACATATATCTATTTATAA [XGTACX_site3713] .
*A* 9.04

*Q* In one line, give reported gcPBM binding intensity (ln) of the entry TTCTTCAAGGAAAACACATGCGCATTTTCACCAATT [TGCATGCA_site11] .
*A* 9.15

*Q* In one line, give reported gcPBM binding intensity (ln) of the entry TAATGATTATATGACTGTACATTTGTAGGTATAATT [XGTACX_site3373] .
*A* 9.18

*Q* In one line, give reported gcPBM binding intensity (ln) of the entry ATTTGGCATGGACACACACACACACCGACAGACATA [CACACA_site4491] .
*A* 10.2

*Q* In one line, give reported gcPBM binding intensity (ln) of the entry TACTTACAGATAATAACACACAAGAAAAAAATAAAA [CACACA_site4716] .
*A* 9.8

*Q* In one line, give reported gcPBM binding intensity (ln) of the entry ATAATATATATATTTTGTACACATGAAAAGGAGGAT [XGTACX_site5034] .
*A* 9.52

*Q* In one line, give reported gcPBM binding intensity (ln) of the entry TTTATATTATAATATAATAATGATCTTAATTTTTTT [XGTACX_negctrl_site100] .
*A* 8.91

*Q* In one line, give reported gcPBM binding intensity (ln) of the entry TATTTATTTTTTTTTGTGCACTTAATATAATCTTAC .
*A* 9.24

*Q* In one line, give reported gcPBM binding intensity (ln) of the entry CATATACACGAACACACACACATATATATATATATA [CACACA_site4437] .
*A* 9.84

*Q* In one line, give reported gcPBM binding intensity (ln) of the entry TGATATTTTTCCATAGTGCAAAATATAGTAATGTAT .
*A* 9.11

*Q* In one line, give reported gcPBM binding intensity (ln) of the entry GTTAATCACCATGTGGTGCATATAAGGGCATATTAT [GTGCAC_site9748] .
*A* 9.22
